Experiment: soluble on expression in E. coli; label from the status in PepcDB or PDB records
PROPERTY_MEASURED: soluble on expression in E. coli

Here is how some sequences turned out for soluble on expression in E. coli.
MGSDKIHHHHHHMISYGELIRQIRQSKKISQKEVYTGVISKSYAIEFEKGTHAISSLLLEKIVAKLMVSMEEFFLMYHQEALPEKEDFWEAYARTCKTDEASAWESLYQKISLEKGKVNQVKSAAIKLELDHIKGKQVADKKAVQILENYLIEAVFWTLQDIFLFTRMMHYLPLKSRVPFYYKLLNTLDRYRHFERGRSISQSALASIMDDFIEKNEIEYMELMIKSLEKISEDCDGTYSKILCMYYRGIVRWREGEKREGSEEIEQAVAILRALGYENKAAEYETMYRQFARENNDIKTME    not soluble
MDASIEKRPRTRLSPQKRKLQLMEIALEVFAKRGIGRGGHADIAEIAQVSVATVFNYFPTREDLVDDVLNFVVRQYSNFLTDHIDLDLDVKTNLQTLCKEMVKLAMTDCHWLKVWFEWSASTRDEVWPLFVSTNRTNQLLIRNMFMKAMERGELCEKHDVDNMASLFHGIFYSIFLQVNRLGEQEAVYKLADSYLNMLCIYKN    soluble
MKHFRKELWFETRQRRQFINITPTVRECLRESGIREGLLLCNAMHITASVFINDDESGLHHDFEVWLEGLAPEKPYDRYRHNGYEDNADAHLKRTVMGREVVVAVTAGELDLGPWEQIFYGEFDGKRRKRVLIKIIGELEHHHHHH    not soluble
MGSDKIHHHHHHMKISVSKNDLENALRYLQAFLDKKDASSIASHIHLEVIKEKLFLKASDSDIGLKSYIFTQSSDKEGVGTINGKKFLDIISCLKDSNIILETKDDSLAIKQNKSSFKLPMFDADEFPEFPVIDPKVSIEVNAPFLVDAFKKIAPVIEQTSHKRELAGILMQFDQKHQTLSVVGTDTKRLSYTQLEKISIHSTEEDISCILPKRALLEILKLFYENFSFKSDGMLAVIENEMHTFFTKLIDGNYPDYQKILPKEYISSFTLGKEEFKESIKLCSSLSSTIKLTLEKNNALFESLDSEHSETAKTSVEIEKGLDIEKAFHLGVNAKFFLEALNALGTTQFVLRCNEPSSPFLIQESLDEKQSHLNAKISTLMMPITL    not soluble

QUERY: Need soluble on expression in E. coli of MRYWLMKSEPSEVSIDDLAARPGQTVPWDGVRNYQARNFMRNQMQPGDLVFFYHSSCPEPGIAGVVEVSRLAYPDETQFDSASKYFDPKSTRENPRWFNVEVRFLRKTRLLSLRELRSYPELAGMRILQKGNRLSITPVDPSEWKFIEAKLQSLEHHHHHH , thanks.
RESULT: not soluble

QUERY: Fill in: soluble on expression in E. coli of MAHHHHHHMFRSEAHFRMLANLRFLELQKLLLNRFQIFKNEEITVLKKGSMKTILYEWAEFLTKEQRATNMTHIPDEVLQSKRVADILRDDVECRWLVGRINVGAVSGVSGVSPPSPLSGAHLARDDAALSKVDQLHLDEYPDLFHYEYPQFPYDYYDKKKMSNFYSLMKFPYNDILNISKRIKREVSPPGGDAKEGEMRQMEEPRGGALESAGVDVVDDDFVSYSSNSYVYAPSEMETSKENYHE is ___
RESULT: not soluble

QUERY: Form field: reported soluble on expression in E. coli of MGSDKIHHHHHHMSSVTLSGRGTLGDRQVYRLGYGAMQLAGPGVFGPPKDPEEAVRVLQAAVEAGINHIDTSDFYGPHVTNQLIRKALHPYPDDLCIVTKVSARRDEKGNWLPAMSPAELTQAVEDNLRHLGLEVLEVVNLRSMLSPHGPVEGSLEAPLATLLELKERGLIRHIGLSNVTAKQVADAQKMTPIVCVQNLYNVAHRADDALVDALAAQHIAWVPFFPLGGFTPLQAQELNEVAASLEATPMQVALAWLLQRAPNILLIPGTSSRTHLAENIAAAELVLPAEALRTLDNIATAARR
RESULT: not soluble

QUERY: I am curious: what soluble on expression in E. coli value has been reported for MGSDKIHHHHHHMTTIFIEKATILDAEKLTEIMTRTFDEEEKRWLCGQGDVIDYNIQPPGYSSVEMMRYSIEELDCYKVIMDGKIIGGIIVTISGKSYGRIDRIFVEPVYQGKGIGSYVIKLIEEEYPSIRIWDLETSSRQLNNHHFYKKMGYETIFKSEDEYCYVKRITVESAEENLIKNKDMKNSQYENCNLANTEYYQVNLKNSSFVGSNMMNMKMSNCNVRQSNFRNINFRNSSYADLNLSGSKFNFVTLGGVQFKDTSLGEDKDPISFNRCDLEGSTISNSNLKNMDIENCDITGMKINGIPIEKLLALYNKVKS ?
RESULT: not soluble

QUERY: Could you tell me which soluble on expression in E. coli is on file for MGSDKIHHHHHHMRHAYRQFGPGTLYTVRLLRALDYLWRHLDEPLLLDRLAEEACFSRFHFHRLYRNLMGETVMESRQRMLLHRAAGELGRADRPLASVAVRAGFSSSAAFIRAFAGRYGETPGRYRQRRLMFLNQRERTMRQVEIVERDAVKVLMRHHRGPYMEIGKAFDALRAVQGPQQGVGAPSRSFGLYLDDQAQTPAADCRSIACATVPAFMEGKAMDGFEWGSIPAGRYAAVLHTGPYSELGECWDWLYRHWLPASGEMPGDTPCVEEYLNAPYDTPPAELKTLLLLSLA ?
RESULT: not soluble

QUERY: Give its soluble on expression in E. coli value. Item: MRREERNMDKLLISFLLSLFMVYFPPSDVVLPSQFEASTDSYVPMSSYPQETQSAKTPSPGSMHPAELIKEYSPLAQSVRQLSVKPLDEPLINRLEKALAVPVKYQSNYLRILEHHHHHH
RESULT: not soluble

QUERY: Would you kindly share the measured soluble on expression in E. coli for MSLKQFKSIINTSQDFEKRIEKIKKEVINDPDVKQFLEAHRAELTNAMIDEDLNVLQEYKDQQKHYDGHKFADCPNFVKGHVPELYVDNNRIKIRYLQCPCKIKYDEERFEAELITSHHMQRDTLNAKLKDIYMNHRDRLDVAMAADDICTAITNGEQVKGLYLYGPFGTGKSFILGAIANQLKSKKVRSTIIYLPEFIRTLKGGFKDGSFEKKLHRVREANILMLDDIGAEEVTPWVRDEVIGPLLHYRMVHELPTFFSSNFDYSELEHHLAMTRDGEEKTKAARIIERVKSLSTPYFLSGENFRNNEGHHHHHH ?
RESULT: soluble

QUERY: Return reported soluble on expression in E. coli; argument: MSTRKDYLSFIAVAAHEFVHTWNVKQYRPKGIVPYDYQQENYSNLLWLVEGSTSYLQYQLLLRGNLMTTDEFFTALAKRITAHAHKPGKESQSVAQASFDAWISEGGDYGNNHSVNIYSEGFLASWLLDFDILAKTALEHHHHHH
RESULT: not soluble
